# ASSAY_METHOD_TEXT: CCTE_Harrill_HTTr_CellCount_MCF7: CCTE's Cell Proliferation Assessment for the High-Throughput Transcriptomics (HTTr) Platform, Harrill Lab (AID 2284012);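 further: count of Hoechst-stained nuclei per well by high-content imaging in MCF-7 cells; cells exposed to compound for six hours; intended direction is loss of nuclei count meaning fewer cells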
Records with an inconclusive call do not appear. Calls of active or inactive are those of the source. How the source made its calls: active means hit-call score of the fitted dose curve at least 0.9, where 1 is the maximum; inconclusive means response in the unintended direction; inactive means score below 0.9.
Labels: active, inactive

COMPOUND	GROUP
O=C(O)c1cccnc1C(=O)O	inactive
CC(O)C1CCCCC1 (stereo not given)	inactive
[O-]n1ccccc1=S.[O-]n1ccccc1=S.[Zn+2]	active
COc1ccc(CCN2CCC(Nc3nc4ccccc4n3Cc3ccc(F)cc3)CC2)cc1	active
O=c1[nH]c(=O)c2cn[nH]c2[nH]1	inactive
C=C(C)[C@H]1CC=C(C)C(=O)C1	inactive
Cc1ccc(S(N)(=O)=O)cc1	inactive
O=C(O)CCCCCCCCCCCC(=O)O	inactive
CCCCCCCCCC(=O)OC	inactive
C1=CC2C3C=CC(C3)C2C1 (stereo not given)	inactive
C=CCOC(=O)CCCCCC	inactive
CC(=O)CC(=O)Nc1ccccc1	inactive
COc1ccc(COC(C)=O)cc1	inactive
CC(C)(C)c1ccc(C(=O)O)cc1	inactive
CC1CCC(C(C)C)C(O)C1 (stereo not given)	inactive

---

# ASSAY_METHOD_TEXT: BSK_3C_VCAM1: BioMAP Diversity Plus: 3C Assay for Vascular cell adhesion molecule 1 (VCAM1) Biomarker Activity (AID 2282999)
# CONDITION_SUMMARY: BioMAP 3C HUVEC, VCAM1 ELISA, cytokine-stimulated; actives raise or lower the signal
Active and inactive are the calls of the source. How the source made its calls: active means hit-call score of the fitted dose curve at least 0.9, where 1 is the maximum; inactive means score below 0.9.
Classes used: yes for active, no for inactive

MOLECULE	GROUP
CC1(C)CCC[C@]2(C)[C@H]3CCO[C@]3(C)CC[C@@H]12	no
CC(=O)c1c(C)c([N+](=O)[O-])c(C(C)(C)C)c([N+](=O)[O-])c1C	no
C1=CC2C3C=CC(C3)C2C1 (configuration not stated)	no
CC(C=O)Cc1ccc(C(C)(C)C)cc1 (configuration not stated)	yes
CCC(C)c1cc([N+](=O)[O-])cc([N+](=O)[O-])c1OC(=O)OC(C)C (configuration not stated)	yes
CC(=O)Nc1ccc(C(=O)CCl)cc1	yes
CN(c1nccc(=O)[nH]1)C1CCN(c2nc3ccccc3n2Cc2ccc(F)cc2)CC1	no
C=CC(C)(O)CCC=C(C)C (configuration not stated)	no
C[C@@H]1CCN(C(=O)[C@H](CCCN=C(N)N)NS(=O)(=O)c2cccc3c2NC[C@H](C)C3)[C@@H](C(=O)O)C1	no
COc1cc(Cl)c(OC)cc1N	no
CC(CN=Cc1ccccc1O)N=Cc1ccccc1O (configuration not stated)	no
CCCCN(CCCC)C(=O)N(CCCC)CCCC	yes

---

# SYSTEM_UNDER_TEST: Cellular tumor antigen p53 (Homo sapiens) (UniProt P04637)
# Sequence (P04637 whole entry, looked up): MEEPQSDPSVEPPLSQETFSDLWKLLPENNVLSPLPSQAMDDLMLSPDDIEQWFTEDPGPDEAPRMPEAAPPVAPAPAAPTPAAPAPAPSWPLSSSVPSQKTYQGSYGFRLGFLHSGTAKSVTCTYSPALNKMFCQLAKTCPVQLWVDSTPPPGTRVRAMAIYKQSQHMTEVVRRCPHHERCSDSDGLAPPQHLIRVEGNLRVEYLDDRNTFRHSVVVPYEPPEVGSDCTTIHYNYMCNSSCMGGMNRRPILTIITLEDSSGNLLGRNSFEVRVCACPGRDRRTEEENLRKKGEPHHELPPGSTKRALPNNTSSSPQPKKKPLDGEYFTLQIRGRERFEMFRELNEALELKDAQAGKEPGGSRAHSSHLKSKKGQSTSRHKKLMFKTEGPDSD
# ASSAY_METHOD_TEXT: TOX21_p53_BLA_p4_ratio: Tox21 HCT-116 p53 Agonism Beta-lactamase Assay, Ratio, Phase 4 (AID 2283601)
Inconclusive results are not listed. Active and inactive are the calls of the source. How the source made its calls: active means hit-call score of the fitted dose curve at least 0.9, where 1 is the maximum; inconclusive means response in the unintended direction; inactive means score below 0.9.
REPORTED_METRIC: outcome

MOLECULE	RESULT
CS(=O)(=O)OCCCCOS(C)(=O)=O	inactive
CC(=O)c1c(C)c([N+](=O)[O-])c(C(C)(C)C)c([N+](=O)[O-])c1C	inactive
CC1C2CC(CC2C2CCCC(O)C2)C1(C)C (configuration not stated)	inactive
O=C(O)c1ccc(O)cc1	inactive
C=CC(=O)OCCCC	inactive
CC(=O)C1(C)CC2=C(CCCC2(C)C)CC1C (configuration not stated)	inactive
CCCCC(CC)(CO)CO	inactive
